# assay-summary: inhibitors of HIV fusion peptide binding, primary screen, biochemical, uHTS, fluorescence dequenching (AID 1986)
# measurement-parameters: cell-free peptide binding, 30 min, at 20 µM, stronger effect = higher value
The campaign covered roughly 290,000 compounds. About 890 (0.31%) were called active. The entries come from a sample that favours actives as a whole.
endpoint: inhibition (%)

| compound | endpoint | reported-value |
| --- | --- | --- |
| O=C(Oc1cccc(-n2cnnn2)c1)c1ccco1 | inhibition | 12 |
| NC1=CC(=O)c2cccc3cccc1c23 | inhibition | 64 |
| COc1cc(OC)c(/C=N/n2c(C)nnc2C)c(OC)c1 | inhibition | -1.2 |
| NC1=Nc2cccc3cccc1c23 | inhibition | 5.1 |
| Cc1[nH]c(=O)[nH]c(=O)c1S(=O)(=O)N1CCCC(C(=O)NCCC2=CCCCC2)C1 (stereo unspecified) | inhibition | 0.7 |
| Cc1ccc(S(=O)(=O)N2CCC(=O)N(CCOC(=O)Nc3cc(C)cc(C)c3)CC2)cc1 | inhibition | -2 |
